experimentalSystem: serotonin transporter (SERT) (Homo sapiens, UniProt P31645)
Sequence (P31645 whole entry, species assumed): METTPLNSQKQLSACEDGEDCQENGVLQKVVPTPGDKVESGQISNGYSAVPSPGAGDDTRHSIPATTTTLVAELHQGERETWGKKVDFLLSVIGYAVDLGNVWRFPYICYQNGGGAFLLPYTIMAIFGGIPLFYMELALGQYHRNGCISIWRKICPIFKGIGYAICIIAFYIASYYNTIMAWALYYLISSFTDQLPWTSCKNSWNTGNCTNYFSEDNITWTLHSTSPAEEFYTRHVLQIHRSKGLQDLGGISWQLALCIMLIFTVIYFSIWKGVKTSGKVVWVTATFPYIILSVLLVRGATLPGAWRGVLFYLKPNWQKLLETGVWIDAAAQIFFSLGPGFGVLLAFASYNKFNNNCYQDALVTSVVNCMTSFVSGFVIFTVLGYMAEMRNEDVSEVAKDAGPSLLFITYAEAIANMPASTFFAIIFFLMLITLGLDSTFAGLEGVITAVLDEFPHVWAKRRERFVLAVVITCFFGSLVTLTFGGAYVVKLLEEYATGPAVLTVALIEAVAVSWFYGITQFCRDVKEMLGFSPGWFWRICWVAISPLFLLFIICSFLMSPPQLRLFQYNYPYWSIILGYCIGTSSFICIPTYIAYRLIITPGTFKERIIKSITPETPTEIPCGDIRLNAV
assayOverview: Serotonin reuptake inhibition, [3H]-5-HT, cells transfected with 5-HT transporter cDNA
measurementConditions: compound 1 μM; relative to control without compound (100%); lower value = stronger inhibition
Consider the following molecules; for each one, report its Triple reuptake inhibition (Ratio %) SERT.
Lab book: enter the figure in %, no units written.

Item COc1cccc2c(-c3nnc(CN4CCC(Cc5ccc(Cl)c(Cl)c5)CC4)[nH]3)c[nH]c12 ; assay system serotonin transporter (SERT) (Homo sapiens, UniProt P31645); Triple reuptake inhibition (Ratio %) SERT reported as 21.98

I looked up COC(=O)c1cccc2c(-c3nnc(CN4CCC(Cc5ccc(Cl)c(Cl)c5)CC4)[nH]3)c[nH]c12 and its Triple reuptake inhibition (Ratio %) SERT for serotonin transporter (SERT) (Homo sapiens, UniProt P31645) was 61.70

Let me check: c1ccc(CC2CCN(Cc3nnc(-c4c[nH]c5ccccc45)[nH]3)CC2)cc1 , system serotonin transporter (SERT) (Homo sapiens, UniProt P31645), measured Triple reuptake inhibition (Ratio %) SERT is 47.99

Given the molecule N#Cc1ccc(-c2nnc(CN3CCC(Cc4ccccc4)CC3)[nH]2)cc1 and test system serotonin transporter (SERT) (Homo sapiens, UniProt P31645), the measured Triple reuptake inhibition (Ratio %) SERT is 60.13

====

experimentalSystem: serotonin transporter (SERT) (Homo sapiens, UniProt P31645)
assayOverview: Serotonin reuptake inhibition, [3H]-5-HT, cells transfected with 5-HT transporter cDNA
measurementConditions: compound 1 μM; relative to control without compound (100%); lower value = stronger inhibition
attributeMeasured: Triple reuptake inhibition (Ratio %) SERT
All answers are understood in %, so give the number only.

Just so you know, measured Triple reuptake inhibition (Ratio %) SERT for Clc1ccc2[nH]cc(-c3nnc(CN4CCC(Cc5ccccc5)CC4)[nH]3)c2c1 came out at 57.01

Recorded result, FC(F)(F)c1ccc(-c2nnc(CN3CCC(Cc4ccc(Cl)c(Cl)c4)CC3)[nH]2)cc1 , Triple reuptake inhibition (Ratio %) SERT: 79.73

Short answer for Fc1ccc2[nH]c(-c3nnc(CN4CCC(c5c[nH]c6ccccc56)CC4)[nH]3)cc2c1 : Triple reuptake inhibition (Ratio %) SERT was 51.31

Noted for Fc1ccc2cc(-c3nnc(CN4CCC(Cc5ccccc5)CC4)[nH]3)[nH]c2c1 : its Triple reuptake inhibition (Ratio %) SERT reads 80.93

According to the records, this molecule FC(F)(F)Oc1ccc(-c2nnc(CN3CCC(Cc4ccccc4)CC3)[nH]2)cc1 displays Triple reuptake inhibition (Ratio %) SERT of 63.99

So for Cc1ccc2[nH]c(-c3nnc(CN4CCC(Cc5ccccc5)CC4)[nH]3)cc2c1 , the logged Triple reuptake inhibition (Ratio %) SERT turned out to be 83.60

Entry Cc1ccc2[nH]c(-c3nnc(CN4CCC(Cc5ccc(Cl)c(Cl)c5)CC4)[nH]3)cc2c1 — recorded Triple reuptake inhibition (Ratio %) SERT = 88.71

Entry Cc1ccc2c(-c3nnc(CN4CCC(Cc5ccccc5)CC4)[nH]3)c[nH]c2c1 , Triple reuptake inhibition (Ratio %) SERT reported as 51.55

response.value for COc1ccc(CC2CCN(Cc3nnc(-c4cc5ccccc5[nH]4)[nH]3)CC2)cc1 (field: Triple reuptake inhibition (Ratio %) SERT) = 70.39

Noted for Nc1ccc2[nH]cc(-c3nnc(CN4CCC(Cc5ccccc5)CC4)[nH]3)c2c1 : its Triple reuptake inhibition (Ratio %) SERT reads 35.57

Fc1ccc(-c2nnc(CN3CCC(Cc4ccccc4)CC3)[nH]2)cc1 yielded Triple reuptake inhibition (Ratio %) SERT of 51.93

The recorded Triple reuptake inhibition (Ratio %) SERT for c1ccc(CC2CCN(Cc3nnc(-c4ccc5ccccc5c4)[nH]3)CC2)cc1 is 50.05

Sure, the documented Triple reuptake inhibition (Ratio %) SERT for COc1ccc2[nH]c(-c3nnc(CN4CCC(Cc5ccccc5)CC4)[nH]3)cc2c1 is 60.60

Query COc1cc2cc(-c3nnc(CN4CCC(Cc5ccccc5)CC4)[nH]3)[nH]c2cc1OC yields Triple reuptake inhibition (Ratio %) SERT of 63.05

// c1ccc(CC2CCN(Cc3nnc(-c4cc5ccccc5[nH]4)[nH]3)CC2)cc1 : Triple reuptake inhibition (Ratio %) SERT value = 91.56

According to the records, this molecule COc1ccc(-c2nnc(CN3CCC(Cc4ccccc4)CC3)[nH]2)cc1OC displays Triple reuptake inhibition (Ratio %) SERT of 53.41

The reported Triple reuptake inhibition (Ratio %) SERT of the molecule FC(F)(F)Oc1ccc(-c2nnc(CN3CCC(Cc4ccc(Cl)c(Cl)c4)CC3)[nH]2)cc1 was 82.77

Item: Clc1ccc2[nH]c(-c3nnc(CN4CCC(Cc5ccccc5)CC4)[nH]3)cc2c1 | Triple reuptake inhibition (Ratio %) SERT: 74.39

COc1ccc2cc(-c3nnc(CN4CCC(Cc5ccccc5)CC4)[nH]3)[nH]c2c1 yielded Triple reuptake inhibition (Ratio %) SERT of 66.40

Record summary for Clc1cccc2c(-c3nnc(CN4CCC(Cc5ccccc5)CC4)[nH]3)c[nH]c12 : reported Triple reuptake inhibition (Ratio %) SERT = 53.66

Measured Triple reuptake inhibition (Ratio %) SERT of Cc1ccc2[nH]cc(-c3nnc(CN4CCC(Cc5ccccc5)CC4)[nH]3)c2c1 : 58.07

get_value(item= Clc1ccc2[nH]c(-c3nnc(CN4CCN(Cc5ccccc5)CC4)[nH]3)cc2c1 , readout=Triple reuptake inhibition (Ratio %) SERT) returns 92.53

# molecule COc1ccc2[nH]cc(-c3nnc(CN4CCC(Cc5ccc(Cl)c(Cl)c5)CC4)[nH]3)c2c1 ; its Triple reuptake inhibition (Ratio %) SERT = 28.87

Looking up c1ccc(C2CCN(Cc3nnc(-c4cc5ccccc5[nH]4)[nH]3)CC2)cc1 , I found its Triple reuptake inhibition (Ratio %) SERT recorded as 95.94

Form field Triple reuptake inhibition (Ratio %) SERT, entry c1ccc(CC2CCN(Cc3nnc(-c4ccc(Oc5ccccc5)cc4)[nH]3)CC2)cc1 : 77.61

Record Clc1cccc2[nH]c(-c3nnc(CN4CCC(Cc5ccccc5)CC4)[nH]3)cc12 , field Triple reuptake inhibition (Ratio %) SERT: 109.21

Short answer for Clc1ccc(CC2CCN(Cc3nnc(-c4cc5ccccc5[nH]4)[nH]3)CC2)cc1Cl : Triple reuptake inhibition (Ratio %) SERT was 91.11

Noted for COc1ccc2c(-c3nnc(CN4CCC(Cc5ccc(Cl)c(Cl)c5)CC4)[nH]3)c[nH]c2c1 : its Triple reuptake inhibition (Ratio %) SERT reads 31.88

Looking up NC(=O)c1ccc2[nH]c(-c3nnc(CN4CCC(Cc5ccccc5)CC4)[nH]3)cc2c1 , I see its Triple reuptake inhibition (Ratio %) SERT listed as 56.55

Noted for Clc1ccc(CC2CCN(Cc3nnc(-c4cc5ccccc5[nH]4)[nH]3)CC2)cc1 : its Triple reuptake inhibition (Ratio %) SERT reads 79.48

What the record says about FC(F)(F)c1ccc(-c2nnc(CN3CCC(Cc4ccccc4)CC3)[nH]2)cc1 : Triple reuptake inhibition (Ratio %) SERT is 66.02

Notebook: Oc1cc2cc(-c3nnc(CN4CCC(Cc5ccccc5)CC4)[nH]3)[nH]c2cc1O , Triple reuptake inhibition (Ratio %) SERT read as 27.99

Reported Triple reuptake inhibition (Ratio %) SERT of c1ccc(CC2CCN(Cc3nnc(-c4cc5ccccc5[nH]4)o3)CC2)cc1 : 103.08
